# maps each entry to its IC50
Tested on: Human tumour cell lines: A549, HT29, Saos-2
method-notes: 72-h MTT cytotoxicity assay
Type: cell-based
assay-conditions: read-out: In vitro anti-proliferative activity (72 h MTT IC50); 72 h MTT; human tumour cell lines A549, HT29, Saos-2
Return type: number; implicit unit µM.

Sample records with IC50:
Q: Quick check: IC50 on Human tumour cell lines: A549, HT29, Saos-2, item CCC(O)[C@H](CC)Nc1nc(NCc2ccccn2)c2ncn(C(C)C)c2n1 (mixture of isomers) ?
Ans: 27

Q: State its IC50 on Human tumour cell lines: A549, HT29, Saos-2: CC[C@@H](Nc1nc(NCc2ccccn2)c2ncn(C(C)C)c2n1)C(O)C(C)(C)C (mixture of isomers)
Ans: 38

Q: Record lookup: for Human tumour cell lines: A549, HT29, Saos-2, what IC50 belongs to CC[C@H](Nc1nc(NCc2ccccn2)c2ncn(C(C)C)c2n1)C(O)C(C)C (mixture of isomers) ?
Ans: 26

---
Q: Fill in the recorded IC50 for this compound, with Human tumour cell lines: A549, HT29, Saos-2 as test system: CCC(O)[C@@H](CC)Nc1nc(NCc2ccccn2)c2ncn(C(C)C)c2n1 (mixture of isomers)
Ans: 19
